All figures here come from the supplement of paper PMC9112550.

Tested on: Escherichia coli TOP10
run.description: shrunken log2 fold change of peptide-encoding DNA abundance (4.5 h post-induction vs induction); higher = less antimicrobial activity (less host growth inhibition)
measurement.setup: time post-induction: 4.5 h; library: site-saturation at positions 5, 18, 19, 20
shrunken log2 fold change of 0.2 or higher: TRUE. Under 0.2: FALSE.

Take a look at these entries with their results.
input.sequence: RRIRDRPPRLPRPRPRPFFNPRP
answer.label: FALSE

input.sequence: RRIRCRPPRLPRPRPRPWHNPRP
answer.label: FALSE

input.sequence: RRIRKRPPRLPRPRPRPKKAPRP
answer.label: FALSE

input.sequence: RRIRVRPPRLPRPRPRPGWQPRP
answer.label: TRUE

input.sequence: RRIRQRPPRLPRPRPRPSTPPRP
answer.label: FALSE

input.sequence: RRIRIRPPRLPRPRPRPSFTPRP
answer.label: FALSE

input.sequence: RRIRWRPPRLPRPRPRPRAPPRP
answer.label: TRUE

input.sequence: RRIRSRPPRLPRPRPRPPHIPRP
answer.label: FALSE

input.sequence: RRIRTRPPRLPRPRPRPQIEPRP
answer.label: FALSE

input.sequence: RRIRNRPPRLPRPRPRPPQMPRP
answer.label: TRUE

Request: Hello, I need to know if RRIRVRPPRLPRPRPRPHAPPRP has measured shrunken log2 fold change not below 0.2. Thanks!
Response: TRUE

Request: Would you say RRIRKRPPRLPRPRPRPYGDPRP shows shrunken log2 fold change at minimum 0.2?
Response: FALSE

Request: Hi, just wondering whether RRIRPRPPRLPRPRPRPREFPRP shows shrunken log2 fold change of 0.2 or higher.
Response: TRUE

Request: State whether the measured shrunken log2 fold change reaches 0.2, counting equality as reaching it, for RRIRHRPPRLPRPRPRPEWPPRP
Response: TRUE

====

sequences and their reported shrunken log2 fold change
Test system: Escherichia coli TOP10
run.description: shrunken log2 fold change of peptide-encoding DNA abundance (4.5 h post-induction vs induction); higher = less antimicrobial activity (less host growth inhibition)
measurement.setup: time post-induction: 4.5 h; library: site-saturation at positions 5, 18, 19, 20
Keep it simple and answer with nothing but the number.

Request: // output shrunken log2 fold change; input RRIRDRPPRLPRPRPRPLKTPRP ; system Escherichia coli TOP10
Response: 0.333

Request: State shrunken log2 fold change on Escherichia coli TOP10. Entry: RRIRTRPPRLPRPRPRPSRVPRP
Response: 0.526

Request: Answer briefly: shrunken log2 fold change recorded on Escherichia coli TOP10 for RRIRERPPRLPRPRPRPWTPPRP
Response: -0.15

Request: Return reported shrunken log2 fold change for target or system Escherichia coli TOP10, item RRIRERPPRLPRPRPRPGCGPRP .
Response: 0.307

====

Tested on: Escherichia coli TOP10
run.description: shrunken log2 fold change of peptide-encoding DNA abundance (4.5 h post-induction vs induction); higher = less antimicrobial activity (less host growth inhibition)
measurement.setup: time post-induction: 4.5 h; library: site-saturation at positions 5, 18, 19, 20
# class assignment by measured shrunken log2 fold change: low: < -0.1; middle: ≥ -0.1 and < 0.04; high: ≥ 0.04

input.sequence: RRIRIRPPRLPRPRPRPQSDPRP
answer.label: low
--
input.sequence: RRIRDRPPRLPRPRPRPCTEPRP
answer.label: high
--
input.sequence: RRIRQRPPRLPRPRPRPRYDPRP
answer.label: middle
--
input.sequence: RRIRHRPPRLPRPRPRPNYNPRP
answer.label: low
--
input.sequence: RRIRLRPPRLPRPRPRPYMPPRP
answer.label: low
--
input.sequence: RRIRARPPRLPRPRPRPWCMPRP
answer.label: low
--
input.sequence: RRIRVRPPRLPRPRPRPTKSPRP
answer.label: middle
--
input.sequence: RRIRFRPPRLPRPRPRPVPRPRP
answer.label: high
--
input.sequence: RRIRFRPPRLPRPRPRPEAEPRP
answer.label: high
--
input.sequence: RRIRMRPPRLPRPRPRPYAHPRP
answer.label: middle

With those in mind, consider the next sequence.
Request: Pick a category. Item: RRIRLRPPRLPRPRPRPRWMPRP
Response: high

====

System: Escherichia coli TOP10
run.description: shrunken log2 fold change of peptide-encoding DNA abundance (4.5 h post-induction vs induction); higher = less antimicrobial activity (less host growth inhibition)
measurement.setup: time post-induction: 4.5 h; library: site-saturation at positions 5, 18, 19, 20
reported.endpoint: shrunken log2 fold change
// return a plain number; no unit text

Recorded shrunken log2 fold change, per entry:
input.sequence: RRIRERPPRLPRPRPRPQPFPRP
shrunken log2 fold change: 0.217

input.sequence: RRIRRRPPRLPRPRPRPKHMPRP
shrunken log2 fold change: 0.932

Consider now this further sequence.
Request: Fill in reported shrunken log2 fold change for this entry: RRIRFRPPRLPRPRPRPYVRPRP
Response: -0.0985

====

Tested on: Escherichia coli TOP10
run.description: shrunken log2 fold change of peptide-encoding DNA abundance (4.5 h post-induction vs induction); higher = less antimicrobial activity (less host growth inhibition)
measurement.setup: time post-induction: 4.5 h; library: site-saturation at positions 5, 18, 19, 20
Each entry below lists one item and its recorded shrunken log2 fold change value.
// return just the number, without any unit appended

Below are worked cases with known answers.
input.sequence: RRIRWRPPRLPRPRPRPNSSPRP
reported.endpoint: shrunken log2 fold change
experimental.value: -0.0636
//
input.sequence: RRIRIRPPRLPRPRPRPWRCPRP
reported.endpoint: shrunken log2 fold change
experimental.value: -0.107
//
input.sequence: RRIRFRPPRLPRPRPRPIWIPRP
reported.endpoint: shrunken log2 fold change
experimental.value: -0.234
//
input.sequence: RRIRGRPPRLPRPRPRPHYLPRP
reported.endpoint: shrunken log2 fold change
experimental.value: -0.295
//
input.sequence: RRIRLRPPRLPRPRPRPSYTPRP
reported.endpoint: shrunken log2 fold change
experimental.value: -0.792

Request: Report the value of shrunken log2 fold change obtained on Escherichia coli TOP10 for RRIRFRPPRLPRPRPRPQHRPRP .
Response: -0.0907

Request: Identify measured shrunken log2 fold change obtained with Escherichia coli TOP10 for RRIRLRPPRLPRPRPRPTDTPRP .
Response: -0.304

Request: Tell me its shrunken log2 fold change on Escherichia coli TOP10: RRIRDRPPRLPRPRPRPCQAPRP
Response: -0.0133

Request: Report shrunken log2 fold change from Escherichia coli TOP10 testing of RRIRPRPPRLPRPRPRPEMNPRP
Response: -0.381

Request: State measured shrunken log2 fold change of the sequence RRIRGRPPRLPRPRPRPTMAPRP with Escherichia coli TOP10.
Response: 1.24

Request: Write down the reported shrunken log2 fold change (system: Escherichia coli TOP10) of RRIRLRPPRLPRPRPRPFVTPRP
Response: -0.303

Request: Find shrunken log2 fold change for RRIRWRPPRLPRPRPRPCADPRP on Escherichia coli TOP10 and write it down.
Response: 0.579

Request: Provide shrunken log2 fold change, system Escherichia coli TOP10, entry RRIRYRPPRLPRPRPRPQSHPRP
Response: -0.416

Request: Look up Escherichia coli TOP10 data: shrunken log2 fold change of RRIRNRPPRLPRPRPRPNYYPRP , then report it.
Response: -0.473

Request: Print Escherichia coli TOP10 shrunken log2 fold change for RRIRWRPPRLPRPRPRPMHCPRP .
Response: -0.0635

Request: Enter shrunken log2 fold change (test system Escherichia coli TOP10) for RRIRDRPPRLPRPRPRPFKVPRP
Response: -0.0463

Request: Name the value of shrunken log2 fold change reported for RRIRCRPPRLPRPRPRPFPSPRP when tested on Escherichia coli TOP10.
Response: 0.118

Request: Specify shrunken log2 fold change for RRIRFRPPRLPRPRPRPFYWPRP , system Escherichia coli TOP10.
Response: -0.217

====

// reported shrunken log2 fold change for each item listed
System: Escherichia coli TOP10
run.description: shrunken log2 fold change of peptide-encoding DNA abundance (4.5 h post-induction vs induction); higher = less antimicrobial activity (less host growth inhibition)
measurement.setup: time post-induction: 4.5 h; library: site-saturation at positions 5, 18, 19, 20
Write no unit; give the number alone.

Examples from the recorded data:
input.sequence: RRIRYRPPRLPRPRPRPQYYPRP
experimental.system: Escherichia coli TOP10
experimental.value: -1.52
--
input.sequence: RRIRTRPPRLPRPRPRPNKVPRP
experimental.system: Escherichia coli TOP10
experimental.value: -0.326
--
input.sequence: RRIRHRPPRLPRPRPRPVPHPRP
experimental.system: Escherichia coli TOP10
experimental.value: -0.031
--
input.sequence: RRIRQRPPRLPRPRPRPVNVPRP
experimental.system: Escherichia coli TOP10
experimental.value: 0.0398
--
input.sequence: RRIRYRPPRLPRPRPRPPLYPRP
experimental.system: Escherichia coli TOP10
experimental.value: 0.755
--
input.sequence: RRIRGRPPRLPRPRPRPMPHPRP
experimental.system: Escherichia coli TOP10
experimental.value: 0.523
--
input.sequence: RRIRFRPPRLPRPRPRPCNKPRP
experimental.system: Escherichia coli TOP10
experimental.value: -0.249
--
input.sequence: RRIRFRPPRLPRPRPRPRKCPRP
experimental.system: Escherichia coli TOP10
experimental.value: -0.0611
--
input.sequence: RRIRKRPPRLPRPRPRPGPDPRP
experimental.system: Escherichia coli TOP10
experimental.value: 0.608
--
input.sequence: RRIRFRPPRLPRPRPRPHSAPRP
experimental.system: Escherichia coli TOP10
experimental.value: -0.179

Request: Report measured shrunken log2 fold change on Escherichia coli TOP10; entry: RRIRDRPPRLPRPRPRPCGQPRP
Response: -0.0223

Request: System Escherichia coli TOP10. Read-out shrunken log2 fold change. Item RRIRTRPPRLPRPRPRPYWGPRP . Report value.
Response: -0.0337

Request: Write down measured shrunken log2 fold change (Escherichia coli TOP10) for this sequence. RRIRVRPPRLPRPRPRPHMAPRP
Response: -0.339

Request: # assay system Escherichia coli TOP10: give shrunken log2 fold change of RRIRKRPPRLPRPRPRPGFYPRP
Response: 0.00129

Request: Please respond with reported shrunken log2 fold change (system Escherichia coli TOP10) for RRIRWRPPRLPRPRPRPCTPPRP .
Response: -0.0412

Request: Quote shrunken log2 fold change with test system Escherichia coli TOP10 for RRIRFRPPRLPRPRPRPFMHPRP
Response: -0.147

Request: Name the recorded shrunken log2 fold change of RRIRLRPPRLPRPRPRPELSPRP , assay system Escherichia coli TOP10.
Response: -0.113

Request: Check Escherichia coli TOP10 data and give shrunken log2 fold change for RRIRGRPPRLPRPRPRPPTCPRP .
Response: 0.172

Request: Name the recorded shrunken log2 fold change of RRIRYRPPRLPRPRPRPFHYPRP , assay system Escherichia coli TOP10.
Response: -0.21

Request: Report the value of shrunken log2 fold change obtained on Escherichia coli TOP10 for RRIRVRPPRLPRPRPRPHGEPRP .
Response: 0.0918

Request: Specify the recorded shrunken log2 fold change for RRIRQRPPRLPRPRPRPYWAPRP , system: Escherichia coli TOP10.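 Also: peptides expressed intracellularly from a pBAD plasmid library in pooled LB shake-flask culture, induced with 0.3% L-arabinose, DNA abundance read by NGS, three biological replicates, DESeq2 with apeglm shrinkage.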
Response: -0.355
